# System: PPARg DBDmut:RXRa IVT, anti-PPARg (DBD mutation: PPARg1 K132A/R137A, NR concentration 270 nM, RXRa partner concentration 90 nM)
# assay.text: PBM binding z-score (relative to random genomic background probes); higher = stronger binding; sequences stand for … in GC…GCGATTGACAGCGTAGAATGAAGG
property: PBM binding z-score

record.sequence	property	result
CCTGCTAGGTCAATGGTCAGATAAAGCAGCTCGC	PBM binding z-score	-0.328
CCATACGGGTCACGAGGTTATAGCACGACGAGCG	PBM binding z-score	1.88
GCTGCTAGGTCAAGTGATGGTCAGCTAAAGCTCG	PBM binding z-score	0.0181
GCGACTGGGGCAAAGGAGGTTACCATAAGGTTGG	PBM binding z-score	-0.0461
CCTATTATTTGACCATAAGGGCAACCGAAGCTCG	PBM binding z-score	0.688
AGAACGAGGGCAATGAGTTGACAGCACGGGTGGC	PBM binding z-score	0.168
TCATATAGGTAATACAGGGGAAAGTCGGCATCTA	PBM binding z-score	1.36
ACTAGCATGCCAAGGGTCACTCAAGATTAGTCCG	PBM binding z-score	-0.409
ATATGCAGGTTAAGGGTCATTCAGGTTGGTTCGC	PBM binding z-score	0.744
CGTCAAAGTTCAACCAAGGTAACGTAAAGCACGC	PBM binding z-score	0.566
GTACCTAGGTGAATAGGTCGTTGATGAGTAGGCG	PBM binding z-score	-0.531
CCTGCTAGGTCAATAGTCAGCTAAAGCAGCTCGC	PBM binding z-score	-0.361
ACAGACAGGAGAGTGAAGGTAACTCAGCTGGACG	PBM binding z-score	0.725
CCAGACAGGTGAAAGGTAACCCAGTCTGGTACGC	PBM binding z-score	-0.215
ATCTAAAGGTCGTGAGGTGAGTATACAGAAAGGC	PBM binding z-score	1.3
ACTATTAGTTGATACGAGGGCAACCGATAGGTTG	PBM binding z-score	1.01
TCGGCTAGGTCAACGATGGTCAGCTAATCTGCTA	PBM binding z-score	-0.836
CGTCCAAGGTCAGACAGGTCAGTGAATGCCGAGT	PBM binding z-score	-0.527
CCAAGCAGGCCAGGGTCACTCAAGCATTTCGCTT	PBM binding z-score	-0.543
TAGCCTAGGTCAGTCAGGGGCCAGTATAGAAAGC	PBM binding z-score	0.0282
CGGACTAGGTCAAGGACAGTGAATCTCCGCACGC	PBM binding z-score	-0.333
CGTCCATGGTCATAGGAGGTCAGTGAAGACAGAT	PBM binding z-score	-0.127
GGAACGAGGGCAAGTTGATAGTAGAGTTTGATGG	PBM binding z-score	0.241
GCGACTGGGGCAAAGCAGGTAACCATAAGGTTGG	PBM binding z-score	-0.574
CGTGCAAGGTCAAAGGTCAGTGAAGAGATGACGG	PBM binding z-score	1.68
ATCTCTAGGTAACCCAGTTCAGTGAATGCCGAAC	PBM binding z-score	1.33
CAAACTAGGTCATGGTCAAAGTCGGTTTGTGCCA	PBM binding z-score	2.9
CCCCGGAGGACAACAGGAGGTCAGAGCTGCCAGA	PBM binding z-score	-1.55
CTACCAAGGTGGACAAGGTCGTTGATTACTATTC	PBM binding z-score	-1.17
CTCGAAAGGTCGGTTGAGGTGAGTGTACGGATAA	PBM binding z-score	0.72
GCGGCTGGGGCAAAGCAGGTTACCATAAGGTTGG	PBM binding z-score	-2.01
GCATATAGGTAATAGAAGGTGAAAGTCCGATTGT	PBM binding z-score	0.445
CGAACTAGGTCCTCCAGGACAGTGAATACATTGA	PBM binding z-score	0.246
CCTTGTTGGTCAGGAGGTCACACACCGGATATGA	PBM binding z-score	0.862
GCTGCTAGGTCAGGTTGGTCAGATAACGGGTACG	PBM binding z-score	-0.406
CGACAAAGTTCAACTAAGGTAACGTAAAGCACGC	PBM binding z-score	0.707
TCTATTAGTTGATTAGCGCAACCGAAACAGCGGA	PBM binding z-score	0.332
CCTATTAGTTGACCCTAAGGGCAACCGAAGCTCG	PBM binding z-score	0.412
TCTGTTAGTTGAAGGGCAACCGACGAGTCCGTTT	PBM binding z-score	0.429
CCTCCAAGGTCAGAGAGGTCAGTGAATGCCGAGT	PBM binding z-score	-0.128
GGTTACGGGTCAAAGGTTATAGCATGAATAGAAT	PBM binding z-score	1.77
TCTAGCAGGCTAGAGGGTCACTCAAGAGGTACGG	PBM binding z-score	-0.174
CCTGCTAGGGCAATGGTCAGCTAAAGCAGCTCGC	PBM binding z-score	-1.07
TTACCAAGGTGAAAGATCGTTGATGCACGCCTTG	PBM binding z-score	0.596
